Source: patent US6610729B1

Experiment: Solubility in saline (0.9% aqueous sodium chloride solution) at 25° C.
Format: physicochemical
Details: saline or isotonic
Protocol: The solubility of the Example compounds of the present invention in saline (0.9% aqueous sodium chloride solution) at 25° C. was measured.
Where a name gives a salt, the structure may show the parent alone.
Task for the reader: assign each of the following compounds its reported solubility.

// for each compound in input: emit solubility
1. CC(C)C[C@@H](C(=O)N[C@@H](Cc1ccc(OCCN(C)C)cc1)C(=O)c1ccco1)C(CN1C(=O)N(C)C(C)(C)C1=O)C(=O)NO.Cl (single isomer, unassigned) [Example 5]
2. CC(C)C[C@@H](C(=O)N[C@@H](Cc1ccccc1)C(=O)c1ccc(OCCN(C)C)cc1)C(CN1C(=O)c2ccccc2C1=O)C(=O)NO.Cl (single isomer, unassigned) [Example 2]

Found:
["> 20 mg/mL", "> 5 mg/mL"]

// for each compound in input: emit solubility
1. CC(C)C[C@@H](C(=O)N[C@@H](Cc1ccc(S(=O)(=O)[O-])cc1)C(=O)c1ccco1)C(Cc1ccccc1)C(=O)NO.[Na+] (single isomer, unassigned) [Example 9]
2. CC(C)C[C@@H](C(=O)N[C@@H](Cc1ccccc1)C(=O)c1ccc(OCCN2CCN(C)CC2)cc1)C(CN1C(=O)c2ccccc2C1=O)C(=O)NO (single isomer, unassigned) [Example 1, Dihydrochloride]
3. CC(C)C[C@@H](C(=O)N[C@@H](Cc1ccc(OS(=O)(=O)[O-])cc1)C(=O)c1ccco1)C(CN1C(=O)c2ccccc2C1=O)C(=O)NO.[Na+] (single isomer, unassigned) [Example 6]

Found:
> 20 mg/mL
> 10 mg/mL
> 20 mg/mL
